assay_system: Cyclin-dependent kinase 5/CDK5 activator 1 (Homo sapiens) (UniProt Q00535+Q15078)
Sequence (Q00535 whole entry): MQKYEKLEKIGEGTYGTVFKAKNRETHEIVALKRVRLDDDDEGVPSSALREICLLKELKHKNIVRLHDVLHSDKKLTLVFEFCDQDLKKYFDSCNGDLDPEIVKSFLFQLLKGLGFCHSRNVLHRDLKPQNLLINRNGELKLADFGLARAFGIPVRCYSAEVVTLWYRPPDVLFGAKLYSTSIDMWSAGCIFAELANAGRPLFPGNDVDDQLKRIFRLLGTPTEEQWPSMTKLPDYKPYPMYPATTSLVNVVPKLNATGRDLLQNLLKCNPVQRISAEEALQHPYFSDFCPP
Sequence (Q15078 99-307 partner limits assumed): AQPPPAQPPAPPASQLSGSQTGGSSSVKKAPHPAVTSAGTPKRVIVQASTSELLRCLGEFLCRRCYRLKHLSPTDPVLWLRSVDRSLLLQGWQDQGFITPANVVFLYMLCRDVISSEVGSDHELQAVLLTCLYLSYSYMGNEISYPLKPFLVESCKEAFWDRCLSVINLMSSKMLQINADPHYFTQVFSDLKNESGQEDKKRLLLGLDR
study_conditions: at 10 µM
Catalogue of residual activity readings, one per entry.
// note: answer is a bare numeric in %

So, CCn1cnc2c(Nc3cccc(Cl)c3)nc(N[C@@H]3CCCC[C@@H]3N)nc21 ? Its residual activity was -1

So, COc1ccc2c(c1)/C(=C/c1cnc[nH]1)C(=O)N2 ? Its residual activity was 0

So, O=[N+]([O-])/C=C/c1ccc2c(c1)OCO2 ? Its residual activity was 96

So, CC(C)[C@H](CO)Nc1nc(Nc2cccc(Cl)c2)c2ncn(C(C)C)c2n1 ? Its residual activity was 0

So, c1cc(-c2cnn3cc(-c4ccc(OCCN5CCCCC5)cc4)cnc23)ccn1 ? Its residual activity was 19

So, COc1cc2ncnc(Nc3ccc(OCc4ccccc4)cc3)c2cc1OC ? Its residual activity was 102

So, COC(=O)[C@@]1(O)C[C@H]2O[C@]1(C)n1c3ccccc3c3c4c(c5c6ccccc6n2c5c31)C(=O)NC4 ? Its residual activity was 1

So, O=C1NC(=O)c2c1c1c3ccccc3n3c1c1c2c2ccccc2n1C1CCC3O1 ? Its residual activity was 65

So, O=c1[nH]c2ccccc2n1C1CCN(Cc2ccc(-c3nc4cc5[nH]cnc5cc4nc3-c3ccccc3)cc2)CC1 ? Its residual activity was 104
